Test system: Rattus norvegicus
ASSAY_NAME: Biodistribution in liver of immature female rat after 1 hr administration of 3 micro Ci (111 kBq) in the absence of 60 microg estradiol
Format: ADME, organism-based
TEST_PARAMETERS: in vivo
MEASUREMENT_TYPE: ID/g (%)

Guide cases for ID/g, answers given:
SMI	MEASUREMENT_TARGET	ID/g [%]
CO[C@H]1C[C@@]2(C)[C@@H](CC[C@@]2(O)/C=C\I)[C@@H]2CCc3c(ccc(O)c3F)[C@H]21	Rattus norvegicus	2
CO[C@H]1C[C@@]2(C)[C@@H](CC[C@@]2(O)/C=C/I)[C@@H]2CCc3cc(O)c(F)cc3[C@H]21	Rattus norvegicus	3.5
C[C@]12CC[C@@H]3c4ccc(O)c(F)c4CC[C@H]3[C@@H]1CC[C@@]2(O)/C=C/I	Rattus norvegicus	2.91
C[C@]12CC[C@@H]3c4cc(F)c(O)cc4CC[C@H]3[C@@H]1CC[C@@]2(O)/C=C\I	Rattus norvegicus	2.25
C[C@@H]1Cc2cc(O)c(F)cc2[C@H]2CC[C@@]3(C)[C@@H](CC[C@@]3(O)/C=C/I)[C@H]12	Rattus norvegicus	2.29

P: C[C@@H]1Cc2cc(O)c(F)cc2[C@H]2CC[C@@]3(C)[C@@H](CC[C@@]3(O)/C=C\I)[C@H]12
Q: C[C@]12CC[C@@H]3c4cc(F)c(O)cc4CC[C@H]3[C@@H]1CC[C@@]2(O)/C=C/I
# input Which record shows the lower ID/g: the first, P , or the second, Q ? In your reply, give the label of the chosen option.
# output P

* * *

System: Rattus norvegicus
ASSAY_NAME: Biodistribution in blood of immature female rat after 12 hour administration of 3 micro Ci (111 kBq) in the absence of 60 microg estradiol
Assay type: ADME, organism-based
TEST_PARAMETERS: in vivo
MEASUREMENT_TYPE: ID/g (%)

For orientation, consider the following solved cases.
SMI	MEASUREMENT_TARGET	RESULT
C[C@@H]1Cc2cc(O)c(F)cc2[C@H]2CC[C@@]3(C)[C@@H](CC[C@@]3(O)/C=C\I)[C@H]12	Rattus norvegicus	0.32
C[C@@H]1Cc2c(ccc(O)c2F)[C@H]2CC[C@@]3(C)[C@@H](CC[C@@]3(O)/C=C/I)[C@H]12	Rattus norvegicus	0.17
C[C@]12CC[C@@H]3c4cc(F)c(O)cc4CC[C@H]3[C@@H]1CC[C@@]2(O)/C=C/I	Rattus norvegicus	0.08
C[C@@H]1Cc2c(ccc(O)c2F)[C@H]2CC[C@@]3(C)[C@@H](CC[C@@]3(O)/C=C\I)[C@H]12	Rattus norvegicus	0.21
C[C@@H]1Cc2cc(O)c(F)cc2[C@H]2CC[C@@]3(C)[C@@H](CC[C@@]3(O)/C=C/I)[C@H]12	Rattus norvegicus	0.12
CO[C@H]1C[C@@]2(C)[C@@H](CC[C@@]2(O)/C=C\I)[C@@H]2CCc3c(ccc(O)c3F)[C@H]21	Rattus norvegicus	0.25
C[C@]12CC[C@@H]3c4cc(F)c(O)cc4CC[C@H]3[C@@H]1CC[C@@]2(O)/C=C\I	Rattus norvegicus	0.17

A: C[C@]12CC[C@@H]3c4ccc(O)c(F)c4CC[C@H]3[C@@H]1CC[C@@]2(O)/C=C\I
B: CO[C@H]1C[C@@]2(C)[C@@H](CC[C@@]2(O)/C=C/I)[C@@H]2CCc3cc(O)c(F)cc3[C@H]21
C: C[C@]12CC[C@@H]3c4ccc(O)c(F)c4CC[C@H]3[C@@H]1CC[C@@]2(O)/C=C/I
# input Hey, can you sort those compounds up there by ID/g, smallest first? Respond with the label ranking, as requested.
# output B, C, A
(B: 0.11%, C: 0.16%, A: 0.24%)
